The values you see were collected from patent US20120028901A1.

IC50 by entry:
# target: TFPI (human TFPI-1α) as coated or added in the ELISA, microarray and enzymatic assays (human), P10646
# experiment: competition
# protocolConditions: modification not given

Solved cases (3 shown):
FQSKKNVFVFGYFERLRAFL [JBT0583] | > 5000 nM
FQSKKNDFVFGYFERLRAKL [JBT0590] | > 5000 nM
AQSKGNVFVFGYFERLRAKL [JBT0497] | 100 nM

I am curious: what IC50 value has been reported for FQSFKNVFVFGYFERLRAKL [JBT0572] ?
> 5000 nM

I am curious: what IC50 value has been reported for FQSDKNVFVFGYFERLRAKL [JBT0588] ?
> 5000 nM

I am curious: what IC50 value has been reported for FQSKKNVFDFGYFERLRAKL [JBT0592] ?
> 5000 nM

I am curious: what IC50 value has been reported for FQSKKNVFVFFYFERLRAKL [JBT0576] ?
> 1670 nM

I am curious: what IC50 value has been reported for FQSKNNVFVHGYFERLRAKL [JBT0487] ?
40 nM

I am curious: what IC50 value has been reported for FQSKKNVFVFGFFERLRAKL [JBT0577] ?
> 5000 nM
